- test: recombinant barcode read abundance after kanamycin selection (control-corrected) (log10(CPM+1)); higher = more efficient recombination; sequences stand for … in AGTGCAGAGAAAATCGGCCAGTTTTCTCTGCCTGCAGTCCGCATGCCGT…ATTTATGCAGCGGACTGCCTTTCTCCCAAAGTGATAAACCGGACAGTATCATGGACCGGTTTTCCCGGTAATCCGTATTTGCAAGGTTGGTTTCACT; site = the 11-nt target
Label met for high-side recombinant barcode read abundance (log10) (at or above 0.2) and not met for low-side recombinant barcode read abundance (log10) (below it).

| sequence content | group label |
| --- | --- |
| TCTACCCCTTGGGTTCTAACCTGTTGCTGAA [TCTACCCCTCA_LTGcore_CT_RTGcore_TT] (site TCTACCCCTCA) (LTG core: CT, RTG core: TT) | met |
| GTCGCCCTTTGGGTTCTAACCTGTTGCTAAG [GTCGCCCCTTA_LTGcore_TT_RTGcore_CT] (site GTCGCCCCTTA) (LTG core: TT, RTG core: CT) | not met |
| GCGGGACCCTGGGTTCTAACCTGTTGCCTAG [GCGGGACCTAG_LTGcore_CC_RTGcore_CT] (site GCGGGACCTAG) (LTG core: CC, RTG core: CT) | met |
| CGCGCCCTCTGGGTTCTAACCTGTTGCGGGA [CGCGCCCCTCC_LTGcore_TC_RTGcore_TC] (site CGCGCCCCTCC) (LTG core: TC, RTG core: TC) | met |
| AAACACAGGTGGGTTCTAACCTGTTGCCTAG [AAACACACTAG_LTGcore_GG_RTGcore_CT] (site AAACACACTAG) (LTG core: GG, RTG core: CT) | met |
